Data provenance is PubChem BioAssay (NCI).

- Tested on: MDA-MB-468 breast
- Experimental Details: NCI-60 one-dose screen, 48 h (100 = growth as untreated, 0 = no growth, -100 = all killed)
- Condition Summary: 10 µM unless noted
Compounds without any hit were thinned out: in the full panel of roughly 83,000, 20% have a hit.
just bin them by growth: bucket 1 (below 60%), bucket 2 (60% to below 90%), bucket 3 (90% or more)

>>> discrete_label("COC1=CC(c2ccc[nH]2)=N/C1=C\\c1[nH]c(C)c(C(=O)CCCCC(=O)NCc2ccccc2)c1C")
"bucket 1"
>>> discrete_label("COC(=O)C(C)[C@H]1CC[C@@H]2[C@]1(C)CC=C1[C@]23C=C[C@]2(C[C@@H](OC(C)=O)CC[C@]12C)C(C(=O)OC)C3C(=O)OC (stereo not given in full)")
"bucket 3"
>>> discrete_label("CCSc1nc2scc(C)c2c(=O)[nH]1")
"bucket 3"
>>> discrete_label("CCCCCCNC(=O)Oc1ccc(/C(=C(/C)c2ccc(OC)cc2)c2ccc(OCCN3CCCC3)cc2)cc1")
"bucket 2"
>>> discrete_label("CS(=O)(=O)c1ccc(C(=O)N/N=C/c2cccc3ccccc23)cc1")
"bucket 2"

Which bin, given its growth, does Cc1ccc(CNc2c3ccccc3nc3cc(NC(=O)CCN4CCCC4)ccc23)cc1 occupy?
bucket 1

Which bin, given its growth, does CCOC(=O)C1CCN(c2ccc(N3C[C@@H](CNCc4ccc(C(=N)N)cc4)OC3=O)cc2)CC1 occupy?
bucket 3

* * *

- Tested on: MDA-MB-468 breast
- Experimental Details: NCI-60 one-dose screen, 48 h (100 = growth as untreated, 0 = no growth, -100 = all killed)
- Condition Summary: 10 µM unless noted
The panel holds about 83,000 compounds, 20% with a hit somewhere; the sample as a whole holds those more often.
Each entry gets NO if its growth stays under 90%, and YES if its growth is 90% or above.

>>> discrete_label("C/C=C1\\SC(=S)NC1=O")
"YES"

API: above_or_equal(metric=growth, cutoff=90%) for item COc1ccc2c(c1)/C(=C\c1c[nH]c3ccc(OC)cc13)C(=O)N2
NO

API: above_or_equal(metric=growth, cutoff=90%) for item COc1ccc(-c2nc3sc(-c4ccc(Cl)cc4)cn3n2)cc1
NO

* * *

- Test system: MDA-MB-468 breast
- Experimental Details: NCI-60 one-dose screen, 48 h
- Condition Summary: 10 µM unless noted
This is part of a sample that, as a whole, favours compounds with a hit. Of some 83,000 tested, about 20% had one in any assay. Active and inactive are the calls of the source. How the source made its calls: active means growth percent below 10; inactive means the rest.
Response enum: active, inactive

Answered examples (3):
>>> discrete_label("Cc1ccccc1NC(=O)c1sc2nc3c(cc2c1N)C(=O)CCC3")
"active"
>>> discrete_label("CC(C)(C)Nc1nc2c(OCCc3ccccc3)cccn2c1-c1ccc([N+](=O)[O-])cc1")
"active"
>>> discrete_label("CCN(CC)S(=O)(=O)c1ccc(S(=O)(=O)N2CCC[C@@H](C(=O)N3CCN(c4nc(C(C)C)no4)CC3)C2)cc1")
"inactive"

For COc1cc(C2CC(c3ccc(Nc4nc(NCCO)nc(NCCO)n4)cc3)=NN2c2cc(Cl)cc(Cl)c2)cc(OC)c1OC (stereo unspecified) , which call appears in the assay record?
active

For Nc1nc(=O)n([C@H]2CC=C(CO)O2)cc1F , which call appears in the assay record?
inactive

For O=C(N/N=C/c1ccc(O)c(O)c1)c1sc2ccccc2c1Cl , which call appears in the assay record?
inactive

* * *

- Test system: MALME-3M melanoma
- Experimental Details: NCI-60 one-dose screen, 48 h (100 = growth as untreated, 0 = no growth, -100 = all killed)
- Condition Summary: 10 µM
Compounds without any hit were thinned out: in the full panel of roughly 83,000, 20% have a hit.
Measurement Label: growth (%)
Record the value in %, omitting the unit from your answer.

Please review the following examples before continuing.
>>> value_reported("O=C(Nc1ccc(OCC(=O)c2ccc(Cl)cc2)cc1)Nc1ccc(Cl)c(C(F)(F)F)c1")
27.4
>>> value_reported("COc1cccc(O)c1/C=C1\\SCc2cc3c(OC)cccc3[o+]c21")
107
>>> value_reported("Cn1cc(-c2cc(N)n3nc(-c4cn(C)c5ccccc45)cc3n2)c2cc(F)ccc21")
-78.5

We next turn to a different compound, shown below.
Find the measured growth: item Fc1ccc(/C=C/c2nc3ccccc3n3c(-c4ccc(Cl)cc4)nnc23)cc1 , target or system MALME-3M melanoma.
7.93

* * *

- Test system: MDA-MB-468 breast
- Experimental Details: NCI-60 one-dose screen, 48 h (100 = growth as untreated, 0 = no growth, -100 = all killed)
- Condition Summary: 10 µM unless noted
- Protocol: Growth inhibition of the MDA-MB-468 human Breast tumor cell line is measured as a screen for anti-cancer activity. Cells are grown in 96 well plates and exposed to the test compound for 48 hours. Compounds are tested at a single concentration, which is 10^-5 M for most compounds. The reported endpoint is percent growth (GI% or GIPRCNT), where numbers from 0 - 100% represent growth inhibition, and numbers from -100% - 0 represent cell death. […]
About 83,000 compounds went through this panel and 20% of them were active in at least one assay; those are over-represented in the sample as a whole.
The following molecules are listed with their measured growth values.
Record the value in %, omitting the unit from your answer.

Please review the following examples before continuing.
>>> value_reported("COc1ccc(/C=C/C(=O)c2cc(OC)c(OC)c(OC)c2)cc1OCc1cn(Cc2ccc(F)cc2)nn1")
25.2
>>> value_reported("Cc1ccc(C)c2c1sc1nc3n[nH]c(N)c3c(=N)n12")
97.1

We next turn to a different molecule, shown below.
Tell me the measured growth of CC1=NOCC(=O)N1 , please.
95.9

* * *

- System: MDA-MB-468 breast
- Experimental Details: NCI-60 one-dose screen, 48 h (100 = growth as untreated, 0 = no growth, -100 = all killed)
- Condition Summary: 10 µM unless noted
Compounds without any hit were thinned out: in the full panel of roughly 83,000, 20% have a hit.
Measurement Label: growth (%)
Record the value in %, omitting the unit from your answer.

Please review the following examples before continuing.
>>> value_reported("Cc1c(C)n(CC(O)CNC2CCCCC2C)c2ccccc12 (stereo not drawn)")
-33.8
>>> value_reported("CSc1ccc(SC2c3ccc(C)cc3Oc3nc(N)c(C#N)c(N)c32)cc1 (stereo not drawn)")
-75.8
>>> value_reported("CN(CCCCCCCCNc1ccnc2ccccc12)Cc1ccc(-c2ccc(-c3ccc(C#N)cc3)s2)cc1")
-50.4
>>> value_reported("CC[C@H](C)[C@H]1NC(=O)[C@@H]([C@H](O)C(C)C)NC(=O)[C@@H](C)N(C)C(=O)[C@H](C)N(C)C(=O)[C@H](CC(C)C)NC(=O)[C@H](CC(C)C)N(C)C(=O)[C@H](C)N(C)C1=O")
-5.6
>>> value_reported("Cc1oc2nc[nH]c(=O)c2c1C(=O)/C=C/c1ccc(Cl)cc1")
10.6

Tell me the measured growth of CC(=O)N1N=C(c2ccc(F)cc2)CC1c1sc(N(C)Cc2ccccc2)nc1Cl (stereo not drawn) , please.
98.1

Tell me the measured growth of Cc1cc(N(CCNc2ccnc3cc(Cl)ccc23)Cc2ccco2)nc(Cl)n1 , please.
-33.5

Tell me the measured growth of CN(C)C(=O)c1cc2cnc(Nc3ccc(-c4csc5c(=O)cc(N6CCNCC6)oc45)cc3)nc2n1C1CCCC1 , please.
19.6

* * *

- Test system: MDA-MB-468 breast
- Experimental Details: NCI-60 one-dose screen, 48 h (100 = growth as untreated, 0 = no growth, -100 = all killed)
- Condition Summary: 10 µM unless noted
This is part of a sample that, as a whole, favours compounds with a hit. Of some 83,000 tested, about 20% had one in any assay.
Measurement Label: growth (%)
Record the value in %, omitting the unit from your answer.

>>> value_reported("O=C(Nc1cccc(-n2cc(-c3ccncc3)c(-c3ccc(O)c(Cl)c3)n2)c1)c1cccc(C(F)(F)F)c1")
34.3
>>> value_reported("Cc1ncc(-c2ccnc(Nc3ccc(S(C)(=O)=O)cc3)n2)n1C(C)C")
-48.8
>>> value_reported("Nc1cccc(NC(=O)C(=O)Nc2cccc(N)c2)c1")
117

We next turn to a different compound, shown below.
Find the measured growth: item NC(=O)n1c(=O)n(-c2cccc(C(F)(F)F)c2)c(=O)c2cc(-c3ccc(F)cc3F)ccc21 , target or system MDA-MB-468 breast.
-8.88

* * *

- Tested on: MDA-MB-468 breast
- Experimental Details: NCI-60 one-dose screen, 48 h
- Condition Summary: 10 µM unless noted
This is part of a sample that, as a whole, favours compounds with a hit. Of some 83,000 tested, about 20% had one in any assay. Activity calls are given as the source filed them. The calls were made as follows: active = growth percent below 10; inactive = the rest.
Response enum: active, inactive

For Cc1ccc(Sc2nnc(/N=C3\C(=O)Nc4ccccc43)s2)cc1 , which call appears in the assay record?
inactive

For COc1cc2nc(N3CCCC3)nc(NCCc3ccccc3)c2cc1OC , which call appears in the assay record?
active

For Nc1cc(Cl)cc2cccnc12 , which call appears in the assay record?
inactive
